measureName: melting point

A selection of reference data follows.
INSERT INTO measurements (compound, observed) VALUES
  ('N#Cc1cc(-c2ccc3c(c2)C(C2CC2)(C2CC2)OC(=O)N3)cs1', '244 to 245 °C'),
  ('O=P(O)(O)C(F)(F)c1ccc(CNCc2ccc(C(F)(F)P(=O)(O)O)cc2)cc1', '106 to 108 °C'),
  ('CCCC1(C)C(=O)N(COC(=O)c2c(Cl)cccc2Cl)S(=O)(=O)N1C (stereo not given)', '93 to 95 °C'),
  ('COc1cn(C)c(=O)c(N)n1', '166 to 167 °C'),
  ('COc1ccc(S(=O)(=O)NC(C)c2ccccc2-c2ccc(F)cc2F)cc1 (stereo not given)', '154 to 155 °C');

Entry C(=C\c1nc2ccccc2n1-c1ccncc1)/c1ccoc1 ; melting point = 172 °C

Per the record, O=C(c1cccc([N+](=O)[O-])c1)n1c2cc(O)c(O)cc2c2ccc(O)c(O)c21 has melting point of 275 to 279 °C

For CC(=O)O[C@H]1[C@H](N2CCCNC2=NC#N)c2cc(C#N)ccc2OC1(C)C (relative stereo) the compound record lists melting point as 245 to 246 °C

// O=c1nc(NC(=S)Nc2ccccc2)c(F)cn1S(=O)(=O)c1ccccc1 : melting point value = 205 to 208 °C

Memo: O=c1nc(N2CCN(Cc3ccccc3)CC2)sc2c([N+](=O)[O-])cc(C(F)(F)F)cc12 , reported melting point: 161 to 163 °C

Form: compound = C[C@@H](n1cnn(-c2ccc(OC(F)(F)C(F)F)cc2)c1=O)[C@@]1(c2ccc(F)cc2F)CO1 ; melting point = 105 to 106 °C

// melting point lookup, compound = COc1cc(OC)c(-c2nc(C)no2)cc1C=O , result: 182 to 183 °C

Sample COC1CN(c2ccc(N3C[C@H](CNC(C)=O)OC3=O)cc2F)C1 ; melting point observed: 160 to 162 °C

// CCN1CCN(C(=O)c2ccc([N+](=O)[O-])cc2C)CC1 : melting point value = 96 to 99 °C

get_value(item= CCCc1ccc(-c2c(-c3ccc(S(C)(=O)=O)cc3)cnn(CC(F)(F)F)c2=O)cc1 , readout=melting point) returns 64 to 66 °C

The measured melting point associated with O=C(O)CCCCCCc1cccc(-c2nc(=O)c3ccccc3s2)n1 reads 149 to 151 °C

Form field melting point, entry CC(C)=CC#Cc1cc(C)cc(Oc2cc(C(F)(F)F)nn2C)n1 : 85 °C

melting point in this record for CC(O)c1ccc(O)c(Cl)n1 (stereo not given) : 89 to 92 °C

melting point reported for this compound CCCCC(C)c1ccc(C=Cc2cc3cc4ccccc4cc3s2)cc1 (stereo not given) : 280 to 282 °C

The compound listed as Fc1cccc(F)c1C1=NC(c2ccc(-c3ccc(C(F)(F)F)cc3)cc2)CO1 (stereo not given) has a reported melting point of 148 to 149 °C
